- assay.target: T1, human α4β1 integrin on cells (human, UniProt P13612 34-1032; P05556 21-798)
- T1 construct: whole, on cells; also called α4β1 cell; Jurkat cells
- experimental.details: Jurkat cell adhesion to VCAM-1
pIC50: −log10 of the molar value. Bridge positions count the residues as written; N and C are the ends. Square brackets hold non-standard residues; d marks the D form. NMeR = CN[C@@H](CCCNC(=N)N)C(=O)O; Pen = CC(C)(S)[C@H](N)C(=O)O
A collection of binders and their measured pIC50
result.type: pIC50

INSERT INTO measurements (binder, result_type, reported) VALUES
  ('Ac-C[NMeR]SDTLCK-OH (disulfide 1-7 (inferred); also: dimer linked by PEG25, attachment not given here, also called peptide 200) [SEQ ID NO: 200]', 'pIC50', '< 4.00'),
  ('Ac-[Pen][NMeR]SDTL[Pen]W[dE][dK]-OH (disulfide 1-7; not fully specified (residue 10); printed as (Ac Pen N-Me-R S D T L Pen W e k OH)2 DIG, disulfide Pen-Pen; also: dimer, two subunits joined by DIG linker, also called peptide 216) [SEQ ID NO: 216]', 'pIC50', '< 4.00'),
  ('Ac-[Pen][NMeR]SDTL[Pen]WE[dK]-NH2 (disulfide 1-7; not fully specified (residue 10); printed as (Ac Pen N-Me-R S D T L Pen W E k NH2)2 DIG, disulfide Pen-Pen; also: dimer, two subunits joined by DIG linker, also called peptide 217) [SEQ ID NO: 217]', 'pIC50', '< 4.00');
